Data origin, for the record: patent US20250154277A1

Please provide measured koff for the entries that follow.
Target: T1, human 5T4-His protein (human, UniProt Q13641 32-355)
T1 construct: also called recombinant 5T4 protein (human 5T4-his tag); human 5T4 protein; not shown: His tag
T1 sequence (looked up): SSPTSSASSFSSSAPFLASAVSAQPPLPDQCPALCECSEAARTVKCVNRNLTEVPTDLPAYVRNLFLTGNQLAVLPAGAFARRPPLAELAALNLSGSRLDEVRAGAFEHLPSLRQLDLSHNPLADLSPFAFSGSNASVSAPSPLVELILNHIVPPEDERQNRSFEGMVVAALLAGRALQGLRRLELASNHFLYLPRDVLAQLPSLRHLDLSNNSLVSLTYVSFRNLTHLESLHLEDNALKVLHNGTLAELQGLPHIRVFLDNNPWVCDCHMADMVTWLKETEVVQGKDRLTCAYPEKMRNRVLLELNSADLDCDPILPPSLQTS
Experiment: SPR Biacore, Protein A capture
Numbers only; they are read as s⁻¹.

Measured koff of 286B4 chimeric antibody (antibody, V domains shown, chimeric mAb; also called 284B4-C) VH: DVQLHESGPGLVKPSQSLSLTCSVTGYSITNNYYWNWIRQFPGNNLEWMGYITYDGSNNYNPSLKNRISVTRDTSKNQFFLKLSSVTTEDTATYYCTRGGGQLRFDYWGQGTTLTVSS VL: SIVMTQTPKFLIVSAGDRVTITCKASQSVSNEVTWYQQKPGQSPKMLIYYASNRYTGVPDRFTGSGYGTDFTFTINTVQAEDLAIYFCQQDYSSPWTFGGGTKLEIK : 0.000113

The reported value for Hu286B4-5 (antibody, V domains shown, humanized) VH: EVQLQESGPGLVKPSDTLSLTCAVSGYSISNNYYWNWIRQPPGKGLEWIGYITYDGSNNYNPSLKNRVTMSRDTSKNQFSLKLSSVTAVDTAVYYCARGGGQLRFDYWGQGTTVTVSS VL: SIVMTQSPSSLSASVGDRVTITCKASQSVSNEVTWYQQKPGKSPKMLIYYASNRYTGVPDRFSGSGYGTDFTFTISSLQPEDIATYFCQQDYSSPWTFGGGTKVEIK in terms of koff is 0.000128

The reported value for Hu286B4-3 (antibody, V domains shown, humanized) VH: EVQLQESGPGLVKPSDTLSLTCAVSGYSISNNYYWNWIRQPPGKGLEWIGYITYDGSNNYNPSLKNRVTMSRDTSKNQFSLKLSSVTAVDTAVYYCARGGGQLRFDYWGQGTTVTVSS VL: DIQMTQSPSSLSASVGDRVTITCKASQSVSNEVTWYQQKPGKAPKMLIYYASNRYTGVPDRFSGSGYGTDFTFTISSLQPEDIATYYCQQDYSSPWTFGGGTKVEIK in terms of koff is 0.000107
